# Test system: Plasmodium falciparum
# protocol.notes: microbe, parasite or virus in culture
# stated.conditions: K1
# Description: Antimalarial activity against multidrug-resistant Plasmodium falciparum K1
readout.label: IC50 (nM)
Answer format: numeric, nM implied, no suffix.

# lookup: IC50 of CS(=O)(=O)c1ccc(-c2cnc3ccc(-c4cccc(C(=O)NCCO)c4)nn23)cc1
78

Also CS(=O)(=O)c1ccc(-c2cnc3ccc(-c4cccc(C(N)=O)c4)nn23)cc1 ?
99

Also CS(=O)(=O)c1ccc(-c2cnc3ccc(-c4ccc(C(F)(F)F)cc4)nn23)cc1 ?
134

Also CS(=O)(=O)c1ccc(-c2cnc3ccc(-c4cccc(C#N)c4)nn23)cc1 ?
96

Also CS(=O)(=O)c1ccc(-c2ccc3ncc(-c4ccc(C(F)(F)F)cc4)n3n2)cc1 ?
668

Also FC(F)(F)c1ccc(-c2ccc3ncc(-c4ccncc4)n3n2)cn1 ?
873

Also CC(C)(C)OC(=O)NCc1cccc(-c2ccc3ncc(-c4ccncc4)n3n2)c1 ?
97

Also CS(=O)(=O)Nc1cccc(-c2ccc3ncc(-c4cncnc4)n3n2)c1 ?
76

Also O=C(c1ccc(-c2ccc3ncc(-c4ccc(C(F)(F)F)cc4)n3n2)cc1)N1CCOCC1 ?
732

Also Fc1ccc(-c2ccc3ncc(-c4ccncc4)n3n2)cc1 ?
138
